Measured Ki by item
- assayed.target: Acyl-protein thioesterase 2 [L78I,A85S] (Homo sapiens, UniProt O95372, A85S/L78I)
- Sequence (O95372 whole entry L78I/A85S): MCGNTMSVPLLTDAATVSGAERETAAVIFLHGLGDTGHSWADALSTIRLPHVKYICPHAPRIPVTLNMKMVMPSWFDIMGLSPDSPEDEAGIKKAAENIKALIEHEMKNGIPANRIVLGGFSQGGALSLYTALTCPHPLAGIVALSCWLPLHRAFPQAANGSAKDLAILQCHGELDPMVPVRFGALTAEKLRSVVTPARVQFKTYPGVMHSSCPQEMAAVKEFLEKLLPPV
- assay.details: Steady-State Kinetic Assays
- assay.setup: pH 6.5
test.readout: Ki (µM)

input_smiles=COc1ccc(N2CCN(C(=O)c3cc4c(s3)-c3ccccc3S(=O)(=O)C4)CC2)cc1 unit_annotation=µM qualifier_operator=> observed_result=10
input_smiles=O=C(CN1CCN(C(=O)c2ccco2)CC1)Nc1cc(C(F)(F)F)ccc1Cl unit_annotation=µM qualifier_operator== observed_result=6.2

----------
Measured Ki by item
- assayed.target: Acyl-protein thioesterase 2 [P86Q] (Homo sapiens, UniProt O95372, P86Q)
- Sequence (O95372 whole entry P86Q): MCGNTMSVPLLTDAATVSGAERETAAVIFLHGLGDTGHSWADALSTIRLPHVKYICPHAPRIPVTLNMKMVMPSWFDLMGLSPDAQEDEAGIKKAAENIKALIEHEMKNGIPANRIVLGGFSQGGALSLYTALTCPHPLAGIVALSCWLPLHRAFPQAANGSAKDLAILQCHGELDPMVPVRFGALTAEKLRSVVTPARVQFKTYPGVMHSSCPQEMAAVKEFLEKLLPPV
- assay.details: Steady-State Kinetic Assays
- assay.setup: pH 6.5
test.readout: Ki (nM)

compound="COc1ccc(N2CCN(C(=O)c3cc4c(s3)-c3ccccc3S(=O)(=O)C4)CC2)cc1 [ML349]" assayed_target="Acyl-protein thioesterase 2 [P86Q] (Homo sapiens, UniProt O95372, P86Q)" test_readout=Ki qualifier_operator== observed_result=130
compound="O=C(CN1CCN(C(=O)c2ccco2)CC1)Nc1cc(C(F)(F)F)ccc1Cl [ML348]" assayed_target="Acyl-protein thioesterase 2 [P86Q] (Homo sapiens, UniProt O95372, P86Q)" test_readout=Ki qualifier_operator=> observed_result=10000
